- EXPERIMENT DESCRIPTION: solvent given as SMILES
- CONDITION PARAMETERS: in CO
# label = Satisfied if absorption maximum < 400 nm else Not satisfied

The examples below pair each entry with its known result.
COMPOUND: O=C1/C(=C2\Sc3ccc(S(=O)(=O)Nc4ccccc4)cc3C2=O)Sc2ccc(S(=O)(=O)Nc3ccccc3)cc21
CAT: Not satisfied
//
COMPOUND: CC[N+]1=C(/C=C/C=C/C=C/C=C2/N(CCCCCC(=O)O)c3ccccc3C2(C)C)C(C)(C)c2cc(S(=O)(=O)[O-])ccc21
CAT: Not satisfied
//
COMPOUND: CCN(CC)c1ccc(C2=C3C(C)=CC(C)=[N+]3[B-](F)(F)n3c(C)cc(C)c32)cc1
CAT: Not satisfied

Req: In plain terms, does "c1ccc(-c2nc(-c3c4ccccc4cc4ccccc34)n3ccccc23)cc1" come in under 400 nm for absorption maximum?
Resp: Satisfied

Req: In plain terms, does "CCN(C)c1ccc(C2=C3C(C)=CC(/C=C/c4ccc(OCCCN=[N+]=[N-])cc4)=[N+]3[B-](F)(F)n3c(C)cc(C)c32)cc1" come in under 400 nm for absorption maximum?
Resp: Not satisfied

Req: In plain terms, does CCOC(=O)C1=CN(c2ccccc2)C=CC1c1ccccc1 (configuration not stated) come in under 400 nm for absorption maximum?
Resp: Satisfied

* * *

- EXPERIMENT DESCRIPTION: solvent given as SMILES
- CONDITION PARAMETERS: in ClCCl
Quick reference for absorption maximum among some compounds
Numbers only here, please. The scale is nm.

Use these answered entries as a reference point.
COMPOUND: [BH3-][P+]1(c2ccccc2)c2ccccc2-c2sc3ccccc3c21 (stereo not drawn)
UNIT INFO: nm
absorption maximum: 325

COMPOUND: c1ccc(C2(c3ccccc3)c3ccc4ccc5ccccc5c4c3-c3c2ccc2ccc4ccccc4c32)cc1
UNIT INFO: nm
absorption maximum: 408

Now for another entry.
Req: Entry "c1ccc2c(-c3cc4c(ccc5sc(-c6cccc7ccccc67)cc54)s3)cccc2c1" has what absorption maximum?
Resp: 333

* * *

Quick reference for absorption maximum among some compounds
- EXPERIMENT DESCRIPTION: solvent given as SMILES
- CONDITION PARAMETERS: in CO
Numbers only here, please. The scale is nm.

LINE NOTATION: CSc1ccc2c(c1)N(CCCN1CCN(C)CN1C)c1ccccc1S2
UNIT INFO: nm
absorption maximum: 314
//
LINE NOTATION: FC(F)(F)c1ccc2c(c1)Nc1ccccc1S2
UNIT INFO: nm
absorption maximum: 324
//
LINE NOTATION: Oc1ccc2ncccc2c1
UNIT INFO: nm
absorption maximum: 331
//
LINE NOTATION: Cc1cc(C)nc(N)n1
UNIT INFO: nm
absorption maximum: 296
//
LINE NOTATION: c1ccc(-c2cc(-c3ccc(N(c4ccccc4)c4ccccc4)cc3)cc(-c3ccccc3)n2)cc1
UNIT INFO: nm
absorption maximum: 359

Req: Entry "CCNc1cc2oc3c/c(=[NH+]\CC)c(C)cc-3c(-c3ccccc3C(=O)OCC)c2cc1C" has what absorption maximum?
Resp: 530

Req: Entry "CCOC(=O)CCCCCn1c2ccccc2c(=O)c2cc3c(cc21)c(=O)c1cc(I)ccc1n3CCCCCC(=O)OCC" has what absorption maximum?
Resp: 535

Req: Entry "O=C1c2ccccc2C2=Cc3cc4c(cc3B(O)N12)OCO4" has what absorption maximum?
Resp: 394

Req: Entry "CN(C)CCCN1c2ccccc2Sc2ccc(Cl)cc21" has what absorption maximum?
Resp: 311

* * *

- EXPERIMENT DESCRIPTION: solvent given as SMILES
- CONDITION PARAMETERS: in C1CCOC1
READOUT KIND: absorption maximum (nm)
Numbers only here, please. The scale is nm.

Use these answered entries as a reference point.
LINE NOTATION: CC(C)(C)c1cc2ccc3cc(C(C)(C)C)cc4c3c2c(c1)c(=O)n1c4nc2c3cc(C(C)(C)C)cc4ccc5cc(C(C)(C)C)cc(c5c43)c21
absorption maximum (nm): 395
//
LINE NOTATION: Clc1cnc2nn3ccccc3c2n1
absorption maximum (nm): 404
//
LINE NOTATION: CCC1(CC)c2cc(B(c3c(C)cc(C)cc3C)c3c(C)cc(C)cc3C)ccc2-c2ccc(N(c3ccccc3)c3ccccc3)cc21
absorption maximum (nm): 400

Req: Entry "CCn1c2ccccc2c2cc(C#Cc3cc(C#Cc4ccc5c(c4)c4ccccc4n5CC)nc(N4CCCCC4)n3)ccc21" has what absorption maximum?
Resp: 393

Req: Entry "COc1cc(-c2nc3c4cccnc4c4ncccc4c3[nH]2)c(OC)cc1/C=C/c1nc2ccccc2[nH]1" has what absorption maximum?
Resp: 401

Req: Entry "F[Si-](F)(c1ccccc1)(c1c2ccccc2cc2ccccc12)c1c2ccccc2cc2ccccc12" has what absorption maximum?
Resp: 391

* * *

Quick reference for absorption maximum among some compounds
- EXPERIMENT DESCRIPTION: solvent given as SMILES
- CONDITION PARAMETERS: in CC#N

COMPOUND: COc1ccc2c3c(OC)c4ccccc4c(OC)c3n(C)c2c1
RESULT: 393 nm

Req: Entry "CN(C)c1ccc(-c2nc3nccnc3n2-c2ccc(N(C)C)cc2)cc1" has what absorption maximum?
Resp: 371 nm

Req: Entry "CN(C)c1ccc2nc(-c3ccc(C(=O)OC[C@H](NC(=O)OC(C)(C)C)C(=O)OCc4ccccc4)cc3)sc2c1" has what absorption maximum?
Resp: 398 nm

Req: Entry "c1cc(N2CCCC2)ccn1" has what absorption maximum?
Resp: 285 nm

Req: Entry "C(=C\c1ccncn1)/c1ccc(-c2ccc(N(c3ccccc3)c3ccccc3)cc2)cc1" has what absorption maximum?
Resp: 381 nm

Req: Entry "COc1ccc(-c2nc(/C(C#N)=C/c3ccc(C#N)cc3)sc2-c2ccc(OC)cc2)cc1" has what absorption maximum?
Resp: 407 nm

Req: Entry "Nc1n[n+]([O-])c2cc(F)ccc2[n+]1[O-]" has what absorption maximum?
Resp: 489 nm

Req: Entry "C=CCNc1ccc2c(ccc3oc4cc(=[N+](C)C)ccc-4nc32)c1" has what absorption maximum?
Resp: 597 nm

Req: Entry "CCNc1cc2c(cc1C)C(c1ccccc1C(=O)O)=C1CCCC(/C=C/C3=[N+](C)c4ccc5ccccc5c4C3(C)C)=C1O2" has what absorption maximum?
Resp: 716 nm

Req: Entry "COC(=O)c1ccc(-c2nc3ccc(N(C)C)cc3s2)cc1" has what absorption maximum?
Resp: 392 nm

Req: Entry "O=[N+]([O-])c1ccc(NCCNCc2c3ccccc3cc3ccccc23)c([N+](=O)[O-])c1" has what absorption maximum?
Resp: 364 nm

Req: Entry "O=C1c2ccccc2-c2c(-c3ccccc3O)[nH]c(=O)n21" has what absorption maximum?
Resp: 393 nm

Req: Entry "COC(=O)c1c(NC(C)(C)C)oc(-c2ccccc2)c1C(=O)OC" has what absorption maximum?
Resp: 334 nm

Req: Entry "COC(=O)/C=C/c1sc(-c2ccc(N(C)C)s2)c(-c2cn(C)c3ccccc23)c1O" has what absorption maximum?
Resp: 478 nm

* * *

- EXPERIMENT DESCRIPTION: solvent given as SMILES
- CONDITION PARAMETERS: in ClCCl
READOUT KIND: absorption maximum

Use these answered entries as a reference point.
LINE NOTATION: O=c1oc2ccccc2c2c1c(=O)oc1cc(O)ccc12
RESULT: 374 nm

LINE NOTATION: CCC1=C(C)C2=C(/C=C/c3ccc(OC)cc3)c3c(C)c(CC)c(C)n3[B-](F)(F)[N+]2=C1C
RESULT: 529 nm

LINE NOTATION: Oc1ccc2ncccc2c1
RESULT: 330 nm

LINE NOTATION: COc1c2ccccc2c(OC)c2c(C#C[Si](C(C)C)(C(C)C)C(C)C)c3cc4sccc4cc3c(C#C[Si](C(C)C)(C(C)C)C(C)C)c12
RESULT: 639 nm

LINE NOTATION: C[Si]1(C)c2ccc(-c3ccc(N(c4ccccc4)c4ccccc4)cc3)cc2C=Cc2cc(-c3ccc(N(c4ccccc4)c4ccccc4)cc3)ccc21
RESULT: 390 nm

Req: Entry "O=Cc1cnc(-c2c3ccccc3cc3ccccc23)nc1" has what absorption maximum?
Resp: 384 nm

Req: Entry "CN(C)c1ccc(/C=C/c2ccc(-c3cc(-c4ccccn4)nc(-c4ccccn4)c3)cc2)cc1" has what absorption maximum?
Resp: 381 nm

Req: Entry "CCOC(=O)COc1ccc(/C=C/C2=C3c4ccccc4C(c4ccc[nH]4)=[N+]3[B-](F)(F)n3ccc(C)c32)cc1" has what absorption maximum?
Resp: 585 nm

Req: Entry "CCN(CC)c1ccc2c(c1)OC1=[N+](c3ccc(I)cc3)[B-](F)(F)n3c(nc4ccccc43)C1=C2" has what absorption maximum?
Resp: 496 nm
